experiment: PK studies in animals of the free base crystal forms; assay type: in vivo; settings: Sprague-Dawley (SD), rat, plasma, iv, 2 mg/kg, 2MPK, 20%HP-B-CD solution, SD rats
OBSERVABLE: AUC(0-inf) (ng·h/mL)
Write the answer as a number in ng·h/mL, unit excluded.

Query: What value of AUC(0-inf) has been recorded for this entry: CC(C)(O)c1nc(N2C[C@H]3CN(C(=O)c4c(F)cccc4-c4ncccn4)C[C@H]3C2)ncc1F [free base crystal form I]
Response: 2280

====

test: PK studies in animals of the free base crystal forms; type: in vivo; conditions: Sprague-Dawley (SD), rat, plasma, po, 5 mg/kg, 5MPK, 0.5%CMC-Na, SD rats
OBSERVABLE: half-life

Query: What value of half-life has been recorded for this entry: CC(C)(O)c1nc(N2C[C@H]3CN(C(=O)c4c(F)cccc4-c4ncccn4)C[C@H]3C2)ncc1F [free base crystal form I]
Response: 1.2 h
